// provenance: PubChem BioAssay (EPA / NIEHS)

- measurement_target: human CYP1A1, CYP1A1 (gene 1543)
- experimental_protocol: NVS_ADME_hCYP1A1: NovaScreen (NVS) CYP450-related Enzyme Activity (ADME) Assay for human CYP1A1 (AID 2283100)
Inconclusive results are not listed. Calls of active or inactive are those of the source. Rule for the calls: active = hit-call score of the fitted dose curve at least 0.9, where 1 is the maximum; inconclusive = response in the unintended direction; inactive = score below 0.9.

{"molecule": "Oc1ccc2c(c1)-c1ccccc1C2", "measurement_target": "human CYP1A1, CYP1A1 (gene 1543)", "AC50": "6.18 µM (active)"}
{"molecule": "CC(C)(O)c1coc(S(=O)(=O)NC(=O)Nc2c3c(cc4c2CCC4)CCC3)c1", "measurement_target": "human CYP1A1, CYP1A1 (gene 1543)", "AC50": "inactive"}
{"molecule": "CN(C)c1ccc(Cc2ccc(N(C)C)cc2)cc1", "measurement_target": "human CYP1A1, CYP1A1 (gene 1543)", "AC50": "inactive"}
{"molecule": "Cc1[nH]cnc1C[C@H]1CCc2c(C)c3ccccc3n2C1=O", "measurement_target": "human CYP1A1, CYP1A1 (gene 1543)", "AC50": "3.83 µM (active)"}
{"molecule": "Cc1c(-c2cccnc2)c2ccccc2n1CCCCC(=O)O", "measurement_target": "human CYP1A1, CYP1A1 (gene 1543)", "AC50": "4.39 µM (active)"}
{"molecule": "CCOC(=O)COc1ccc2c(c1)CC(NCC(O)c1cccc(Cl)c1)CC2 (stereo not given)", "measurement_target": "human CYP1A1, CYP1A1 (gene 1543)", "AC50": "inactive"}
{"molecule": "Fc1ccccc1[C@@H](F)COC1CCC(Nc2ncnc3[nH]ncc23)CC1 (stereo not given in full)", "measurement_target": "human CYP1A1, CYP1A1 (gene 1543)", "AC50": "inactive"}
{"molecule": "CC(=O)OCCC(C)C", "measurement_target": "human CYP1A1, CYP1A1 (gene 1543)", "AC50": "inactive"}
{"molecule": "CCc1cc(SCc2sc(-c3ccc(C(F)(F)F)cc3)nc2CN2CCN(c3ccc(OC)cc3)CC2)ccc1OCC(=O)O", "measurement_target": "human CYP1A1, CYP1A1 (gene 1543)", "AC50": "inactive"}
{"molecule": "O=C(O)c1cc(N=Nc2ccc(S(=O)(=O)Nc3ccccn3)cc2)ccc1O", "measurement_target": "human CYP1A1, CYP1A1 (gene 1543)", "AC50": "inactive"}

###

- Read-out: C-C motif chemokine 2 (Homo sapiens)
- experimental_protocol: BSK_KF3CT_MCP1: BioMAP Diversity Plus: KF3CT Assay for Monocyte Chemoattractant Protein 1 (MCP1/CCL2) Biomarker Activity (AID 2283073)
- cond: primary human keratinocytes with fibroblasts; actives raise or lower the signal
The source made the active and inactive calls. How the source made its calls: active means hit-call score of the fitted dose curve at least 0.9, where 1 is the maximum; inactive means score below 0.9.

{"molecule": "CCOCCO", "outcome": "inactive"}
{"molecule": "O=C(OC[C@H]1O[C@@H](OC(=O)c2cc(O)c(O)c(OC(=O)c3cc(O)c(O)c(O)c3)c2)[C@H](OC(=O)c2cc(O)c(O)c(OC(=O)c3cc(O)c(O)c(O)c3)c2)[C@@H](OC(=O)c2cc(O)c(O)c(OC(=O)c3cc(O)c(O)c(O)c3)c2)[C@@H]1OC(=O)c1cc(O)c(O)c(OC(=O)c2cc(O)c(O)c(O)c2)c1)c1cc(O)c(O)c(OC(=O)c2cc(O)c(O)c(O)c2)c1", "outcome": "inactive"}
{"molecule": "CC(C)=CCC/C(C)=C\\CO", "outcome": "inactive"}
